System: Protein Kinase C
Assay: Protein Kinase C activity (32P incorporation into histone)
Format: biochemical, human (HL-60 cells)
Details: 40.0 μM
MEASURED_QUANTITY: Percent Protein Kinase C Activity Retained (%)
Write the answer as a number in %, unit excluded.

Below: 2 compounds and their reported Percent Protein Kinase C Activity Retained.
CCCCCCCCCCCCCCCCCCSCC(C[N+](C)(C)CCCO)OC (stereo not drawn) [I]: 23
CCCCCCCCCCCCCCCCSCC(C[N+](C)(C)CCCO)OCC (stereo not drawn) [C]: 37

Query block: Specify measured Percent Protein Kinase C Activity Retained for CCCCCCCCCCCCCCCCSCC(C[N+](C)(C)CCO)OCC (stereo not drawn) [B] .
Result block: 47

Query block: Specify measured Percent Protein Kinase C Activity Retained for CCCCCCCCCCCCCCCCCC1OCC(C[N+](C)(C)CCCO)O1 (stereo not drawn) [G] .
Result block: 9

Query block: Specify measured Percent Protein Kinase C Activity Retained for CC1(C)OCC(C[N+](C)(C)CCO)O1 (stereo not drawn) [F] .
Result block: 87

Query block: Specify measured Percent Protein Kinase C Activity Retained for CCCCCCCCCCCCCCCCSCC(C[N+](C)(C)C)OC (stereo not drawn) [D] .
Result block: 29

Query block: Specify measured Percent Protein Kinase C Activity Retained for CCCCCCCCCCCCCCCCOCC(C[N+](C)(C)CCO)OC (stereo not drawn) [H] .
Result block: 29

Query block: Specify measured Percent Protein Kinase C Activity Retained for COC(COc1cccc2ccccc12)C[N+](C)(C)CCO (stereo not drawn) [E] .
Result block: 90

Query block: Specify measured Percent Protein Kinase C Activity Retained for CCCCCCCCCCCCCCCCSCC(C[N+](C)(C)CCO)OC (stereo not drawn) [A] .
Result block: 42

----------
The entries below are paired with their reported Percent Protein Kinase C Activity Retained.
System: Protein Kinase C
Assay: Protein Kinase C activity (32P incorporation into histone)
Format: biochemical, human (HL-60 cells)
Settings: 20.0 μM
Write the answer as a number in %, unit excluded.

CCCCCCCCCCCCCCCCSCC(C[N+](C)(C)C)OC (stereo not drawn): 54
COC(COc1cccc2ccccc12)C[N+](C)(C)CCO (stereo not drawn): 87

Then there is this compound:
Query block: Specify measured Percent Protein Kinase C Activity Retained for CCCCCCCCCCCCCCCCSCC(C[N+](C)(C)CCO)OCC (stereo not drawn) .
Result block: 66

----------
The entries below are paired with their reported Percent Protein Kinase C Activity Retained.
Test system: Protein Kinase C
Experiment: Protein Kinase C activity (32P incorporation into histone)
Format: biochemical, human (HL-60 cells)
Conditions: 1.25 μM
Protocol: PKC was prepared and assayed as described previously. See Daniel, L. W. et al., Biochem. Biophys. Res. Comm. 151, 291 (1988). In brief, HL-60 cells were grown in 75 milliliter flasks, harvested and washed with ice-cold normal saline. After centrifugation (600×g, 5 minutes, 4° Centigrade), the cell pellet was resuspended (20 mM Tris-HCl, pH 7.5, 2 mM EDTA, 10 mM EGTA, 50 mM 2-mercaptoethanol, 2 mM phenylmethylsulfonyl fluoride) and sonicated for 20 s with a stepped microprobe sonciator. […]
Write the answer as a number in %, unit excluded.

Below: 6 compounds and their reported Percent Protein Kinase C Activity Retained.
COC(COc1cccc2ccccc12)C[N+](C)(C)CCO (centres unmarked): 99
CCCCCCCCCCCCCCCCSCC(C[N+](C)(C)CCO)OC (centres unmarked): 97
CC1(C)OCC(C[N+](C)(C)CCO)O1 (centres unmarked): 88
CCCCCCCCCCCCCCCCCCSCC(C[N+](C)(C)CCCO)OC (centres unmarked): 75
CCCCCCCCCCCCCCCCCC1OCC(C[N+](C)(C)CCCO)O1 (centres unmarked): 44
CCCCCCCCCCCCCCCCOCC(C[N+](C)(C)CCO)OC (centres unmarked): 107

Query block: Specify measured Percent Protein Kinase C Activity Retained for CCCCCCCCCCCCCCCCSCC(C[N+](C)(C)C)OC (centres unmarked) .
Result block: 112

Query block: Specify measured Percent Protein Kinase C Activity Retained for CCCCCCCCCCCCCCCCSCC(C[N+](C)(C)CCCO)OCC (centres unmarked) .
Result block: 78

----------
Tested on: Protein Kinase C
Assay: Protein Kinase C activity (32P incorporation into histone)
Assay type: biochemical, human (HL-60 cells)
Conditions: 20.0 μM
MEASURED_QUANTITY: Percent Protein Kinase C Activity Retained (%)
Write the answer as a number in %, unit excluded.

Below: 2 compounds and their reported Percent Protein Kinase C Activity Retained.
CCCCCCCCCCCCCCCCCCSCC(C[N+](C)(C)CCCO)OC (stereo not drawn) [I]: 27
CCCCCCCCCCCCCCCCSCC(C[N+](C)(C)CCCO)OCC (stereo not drawn) [C]: 59

Then there is this compound:
Query block: Name the value of Percent Protein Kinase C Activity Retained reported for CCCCCCCCCCCCCCCCSCC(C[N+](C)(C)CCO)OC (stereo not drawn) [A] when tested on Protein Kinase C.
Result block: 54
